target.or.test.system: T1, recombinant human SOST (rhSOST) (human, UniProt Q9BQB4 24-213)
T1 construct: Treated as one molecule; also called recombinant human SOST protein; human sclerostin
T1 sequence: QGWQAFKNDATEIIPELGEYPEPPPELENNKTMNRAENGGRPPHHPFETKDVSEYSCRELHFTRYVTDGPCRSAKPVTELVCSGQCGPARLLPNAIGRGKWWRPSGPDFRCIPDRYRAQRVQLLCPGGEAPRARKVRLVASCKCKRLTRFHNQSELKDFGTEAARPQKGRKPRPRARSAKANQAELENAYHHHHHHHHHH
assay.info: SPR Biacore T200, IgG captured via anti-human Fc, rhSOST analyte, 37 C
Below, each of the binders is paired with its reported Kd value.
The reply should contain only the number, in pM.

Which Kd is listed for DM2 (antibody, V domains shown, also called mH10/mL14) VH: EVQLLESGGGLVQPGGSLRLSCAASGHTFSDYWMQWVRQAPGKGLEWVGAIYPGDGDTRYNQKFKDRFTISRDNSKNTLYLQMNSLRAEDTAVYYCARSMDYWGQGTLVTVSS VL: DIVMTQSPDSLAVSLGERATINCRASKTVDSYGNSFMHWFQQKPGQPPKLLIYHSSNLESGVPDRFSGSGSGTDFTLTISSLQAEDVAVYYCLQTIEHPYTFGQGTKLEIK ?
321

Let us now turn to DM22 (antibody, V domains shown, also called mH2/wt) VH: EVQLLESGGGLVQPGGSLRLSCAASGFTFTDYWMQWVRQAPGKGLEWIGAIYPGDGDTRYNQKFKDRFTISRDNSKNTLYLQMNSLRAEDTAVYYCARSMDYWGQGTLVTVSS VL: DIVMTQSPDSLAVSLGERATINCRASKTVDSYGNSFMHWFQQKPGQPPKLLIHHSSNLESGVPDRFSGSGSGTDFTLTISSLQAEDVAVYYCLQTIEDPYTFGQGTKLEIK
15

What about this binder? DM9 (antibody, V domains shown, also called mH10/mL18) VH: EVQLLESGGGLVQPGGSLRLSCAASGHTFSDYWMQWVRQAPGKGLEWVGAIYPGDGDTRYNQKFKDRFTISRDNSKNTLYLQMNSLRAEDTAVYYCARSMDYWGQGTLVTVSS VL: DIVMTQSPDSLAVSLGERATINCRASKTVDSYGSNFMHWYQQKPGQPPKLLIYHSSNLESGVPDRFSGSGSGTDFTLTISSLQAEDVAVYYCLQTIEHPYTFGQGTKLEIK
2320
